// data source = ChEMBL document CHEMBL3351921

# tested_on: Prostaglandin D2 receptor 2 (Homo sapiens)
# Sequence (Q9Y5Y4 whole entry): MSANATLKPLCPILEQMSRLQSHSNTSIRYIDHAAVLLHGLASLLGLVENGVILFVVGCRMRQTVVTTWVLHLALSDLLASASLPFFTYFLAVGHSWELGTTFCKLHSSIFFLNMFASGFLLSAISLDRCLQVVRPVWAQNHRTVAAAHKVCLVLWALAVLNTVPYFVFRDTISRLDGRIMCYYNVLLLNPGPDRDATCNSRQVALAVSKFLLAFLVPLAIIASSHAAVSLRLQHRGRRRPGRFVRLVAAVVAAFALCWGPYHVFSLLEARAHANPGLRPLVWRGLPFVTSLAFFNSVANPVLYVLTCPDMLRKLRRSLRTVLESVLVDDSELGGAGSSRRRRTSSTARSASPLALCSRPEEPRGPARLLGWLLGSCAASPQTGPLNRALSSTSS
# assay_info: Antagonist activity at CRTh2 (unknown origin) stably expressed in PGD2-stimulated CHO.K1 cells preincubated for 60 mins by radio-labelled [35S]-GTPgammaS binding assay
# Format: functional, cell-based
observed_property: IC50 (nM)
Only the number, expressed in nM, is required.

Report its IC50 with Prostaglandin D2 receptor 2 (Homo sapiens) as the test system: `COc1ccc(S(=O)(=O)c2ccc(F)cc2)c(Cc2c3c(n(CC(=O)O)c2C)CCNC3=O)c1`
3.6

Report its IC50 with Prostaglandin D2 receptor 2 (Homo sapiens) as the test system: `Cc1c(Cc2ccccc2S(=O)(=O)c2ccccc2)c2c(n1CC(=O)O)CCNC2=O`
4

Report its IC50 with Prostaglandin D2 receptor 2 (Homo sapiens) as the test system: `Cc1c(Cc2ccccc2S(=O)(=O)c2ccccc2)c2c(n1CC(=O)O)CC(C)(C)NC2=O`
4.2
